Exercise: for every item that follows, state its recorded IC50 at 72 h.
Test: Cytotoxicity against human K562 assessed as cell growth inhibition incubated for 72 hrs under dark condition by MTT assay
Format: toxicity, cell-based
Conditions: K562 cells
Provide the reading as a plain figure in µM.

Lab note: measured IC50 at 72 h of "C[C@H](CCC(=O)O)[C@H]1CC[C@H]2[C@@H]3[C@H](O)C[C@@H]4C[C@H](n5cc(CCCNc6ccc([N+](=O)[O-])c(C(F)(F)F)c6)nn5)CC[C@]4(C)[C@H]3CC[C@]12C" was 24

Lookup result for "C[C@H](CCC(=O)O)[C@H]1CC[C@H]2[C@@H]3[C@@H](O)C[C@@H]4C[C@H](n5cc(CCCNc6ccc([N+](=O)[O-])c(C(F)(F)F)c6)nn5)CC[C@]4(C)[C@H]3CC[C@]12C" ; measured IC50 at 72 h: 31.6

Kindly note the recorded IC50 at 72 h for "Nc1ncnc2c1nc(SCCCCCNc1ccc([N+](=O)[O-])c(C(F)(F)F)c1)n2[C@H]1C[C@H](O)[C@@H](CO)O1" , which is 68.1

Data credit: ChEMBL document CHEMBL3853359
